Target: T1, 4H918-bH
T1 chain: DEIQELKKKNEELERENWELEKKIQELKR
Assay: two-hybrid library CCNG1;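 also: natural log of median RNA to DNA barcode read ratio; higher means stronger binding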
reportedMetric: interaction score

>>> print(df.to_string())
                                     binder  reportedresult
0  DEIQELKKEIEELKRENWELKKKNQELER [4H607-bH]          -0.801
1  DEIQELKKENEELKRKNWELEKEIQELKR [4H754-bH]           0.604
2  DKIQELKKENEELEREIWELKKEIQELER [4H2697-bH]          -0.619
3  DKNQELEKEIEELERKIWELEKKNQELKR [4H3112-bH]            0.72
4  DEIQELEKEIEELKRKIWELKKKNQELKR [4H112-bH]          -0.152
5  DKIQELKKKNEELKREIWELEKEIQELKR [4H3010-bH]           -2.71
6  DEIQELKKKIEELKRENWELEKKNQELER [4H855-bH]          -0.637
7  DEIQELEKKIEELKRKNWELEKEIQELKR [4H370-bH]         -0.0355

A. DKIQELKKEIEELKRKNWELEKEIQELER [4H2673-bH]
B. DEIQELKKKIEELKRKNWELEKENQELER [4H883-bH]
C. DKIQELKKENEELERKIWELKKEIQELER [4H2729-bH]
D. DKNQELKKKNEELERKIWELEKEIQELER [4H4001-bH]
# rank_down: sort by interaction score, max first Quick reminder: the answer is the labels in the order asked.
C, B, A, D
(C: 0.482, B: -0.51, A: -0.87, D: -2.1)

I. DENQELEKENEELERKIWELKKEIQELER [4H1193-bH]
II. DEIQELKKENEELERKIWELKKKNQELER [4H687-bH]
Among I and II , which shows a numerically higher interaction score result? Identify your selection by its label.
II
